The origin of these recorded values is patent US5840684A.

tested on: vancomycin-susceptible enterococci; experiment: broth micro-dilution, mean geometric MIC; format: cell-based, Enterococcus faecium and Enterococcus faecalis; settings: enterococci, 24-hour incubation
quantity: mean geometric MIC, Vancomycin Sensitive Strains (µg/mL)
Just the number please, in µg/mL, no unit attached.

Reported mean geometric MIC, Vancomycin Sensitive Strains for CNC(CC(C)C)C(=O)NC1C(=O)NC(CC(N)=O)C(=O)NC2C(=O)NC3C(=O)NC(C(=O)NC(C(=O)O)c4cc(O)cc(O)c4-c4cc3ccc4O)C(OC3CC(C)(N)C(O)C(C)O3)c3ccc(c(Cl)c3)Oc3cc2cc(c3OC2OC(CO)C(O)C(O)C2OC2CC(C)(NCc3ccc(-c4ccccc4)cc3F)C(O)C(C)O2)Oc2ccc(cc2Cl)C1O (stereo not drawn) : what is it?
0.095

Look up mean geometric MIC, Vancomycin Sensitive Strains for this molecule: CNC(CC(C)C)C(=O)NC1C(=O)NC(CC(N)=O)C(=O)NC2C(=O)NC3C(=O)NC(C(=O)NC(C(=O)O)c4cc(O)cc(O)c4-c4cc3ccc4O)C(OC3CC(C)(N)C(O)C(C)O3)c3ccc(c(Cl)c3)Oc3cc2cc(c3OC2OC(CO)C(O)C(O)C2OC2CC(C)(NCCc3ccccc3OCc3ccccc3)C(O)C(C)O2)Oc2ccc(cc2Cl)C1O (stereo not drawn)
0.42

Can you share its mean geometric MIC, Vancomycin Sensitive Strains? I mean this molecule: CNC(CC(C)C)C(=O)NC1C(=O)NC(CC(N)=O)C(=O)NC2C(=O)NC3C(=O)NC(C(=O)NC(C(=O)O)c4cc(O)cc(O)c4-c4cc3ccc4O)C(OC3CC(C)(N)C(O)C(C)O3)c3ccc(c(Cl)c3)Oc3cc2cc(c3OC2OC(CO)C(O)C(O)C2OC2CC(C)(NCC3CCCCC3)C(O)C(C)O2)Oc2ccc(cc2Cl)C1O (stereo not drawn)
0.44
